pIC50: −log10 of the molar value.
Read-out record for Serine/threonine-protein kinase B-raf (Homo sapiens, UniProt P15056): pIC50

{"columns": ["Compound", "pIC50"],
 "data": [
  ["O=S(=O)(Nc1ccc(F)c(Nc2ncccc2-c2ncnc3[nH]cnc23)c1F)c1ccccc1", 7.77],
  ["CCC(C)S(=O)(=O)Nc1ccc(F)c(Nc2ncccc2-c2ncnc3[nH]cnc23)c1F (stereo not drawn)", 7.42],
  ["O=S(=O)(Nc1ccc(F)c(Nc2ncccc2-c2ncnc3[nH]cnc23)c1F)c1cccs1", 9.30],
  ["CN(C)S(=O)(=O)Nc1ccc(F)c(Nc2ncccc2-c2ncnc3[nH]cnc23)c1F", 7.05],
  ["O=S(=O)(Nc1ccc(F)c(Nc2ncccc2-c2ncnc3[nH]cnc23)c1F)c1cccc(F)c1", 8.40],
  ["CS(=O)(=O)Nc1ccc(F)c(Nc2ncccc2-c2ncnc3[nH]cnc23)c1F", 6.39],
  ["O=S(=O)(Nc1ccc(F)c(Nc2ncccc2-c2ncnc3[nH]cnc23)c1F)C1CCCCC1", 7.29],
  ["O=S(=O)(Nc1ccc(F)c(Nc2ncccc2-c2ncnc3[nH]cnc23)c1F)C1CC1", 6.88],
  ["CCN(C)S(=O)(=O)Nc1ccc(F)c(Nc2ncccc2-c2ncnc3[nH]cnc23)c1F", 6.80],
  ["O=S(=O)(Nc1ccc(F)c(Nc2ncccc2-c2ncnc3[nH]cnc23)c1F)c1ccc(F)cc1", 7.08],
  ["O=S(=O)(CC(F)(F)F)Nc1ccc(F)c(Nc2ncccc2-c2ncnc3[nH]cnc23)c1F", 8.00],
  ["O=S(=O)(Nc1ccc(F)c(Nc2ncccc2-c2ncnc3[nH]cnc23)c1F)c1nccs1", 8.70],
  ["O=S(=O)(Cc1ccccc1)Nc1ccc(F)c(Nc2ncccc2-c2ncnc3[nH]cnc23)c1F", 6.95],
  ["CC(C)S(=O)(=O)Nc1ccc(F)c(Nc2ncccc2-c2ncnc3[nH]cnc23)c1F", 7.18],
  ["O=S(=O)(Nc1ccc(F)c(Nc2ncccc2-c2ncnc3[nH]cnc23)c1F)N1CC[C@@H](O)C1", 7.17],
  ["O=S(=O)(CC1CC1)Nc1ccc(F)c(Nc2ncccc2-c2ncnc3[nH]cnc23)c1F", 7.59],
  ["CC(C)(C)CS(=O)(=O)Nc1ccc(F)c(Nc2ncccc2-c2ncnc3[nH]cnc23)c1F", 8.30],
  ["O=S(=O)(Nc1ccc(F)c(Nc2ncccc2-c2ncnc3[nH]cnc23)c1F)c1cccnc1", 9.00]
]}

---

Experimental System: Serine/threonine-protein kinase B-raf (Homo sapiens)
Sequence (P15056 whole entry): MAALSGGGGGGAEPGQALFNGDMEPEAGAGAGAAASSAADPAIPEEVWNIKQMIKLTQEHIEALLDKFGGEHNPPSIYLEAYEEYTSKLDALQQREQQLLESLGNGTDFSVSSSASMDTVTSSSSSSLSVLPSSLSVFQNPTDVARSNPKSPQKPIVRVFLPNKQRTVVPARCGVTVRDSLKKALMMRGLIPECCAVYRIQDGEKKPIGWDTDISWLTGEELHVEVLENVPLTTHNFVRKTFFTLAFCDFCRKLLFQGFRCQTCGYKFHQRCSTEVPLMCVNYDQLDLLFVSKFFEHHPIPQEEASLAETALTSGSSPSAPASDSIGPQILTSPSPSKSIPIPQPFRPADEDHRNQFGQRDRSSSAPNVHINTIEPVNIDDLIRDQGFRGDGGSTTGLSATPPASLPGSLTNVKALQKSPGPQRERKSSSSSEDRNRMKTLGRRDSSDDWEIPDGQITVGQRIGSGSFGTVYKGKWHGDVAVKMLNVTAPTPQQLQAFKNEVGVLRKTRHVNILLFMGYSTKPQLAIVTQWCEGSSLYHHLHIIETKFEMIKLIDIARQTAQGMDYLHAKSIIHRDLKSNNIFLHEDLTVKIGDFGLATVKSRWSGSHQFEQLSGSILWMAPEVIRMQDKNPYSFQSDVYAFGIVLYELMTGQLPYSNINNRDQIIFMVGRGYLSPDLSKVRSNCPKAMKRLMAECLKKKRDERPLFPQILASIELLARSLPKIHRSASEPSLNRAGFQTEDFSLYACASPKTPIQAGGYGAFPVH
Measurement Notes: Inhibition of wild type B-Raf in human MIAPaCa2 cells assessed as reduction in ERK phosphorylation preincubated for 1 hr by Western blot method
pEC50: −log10 of the molar value.
Parameter Measured: pEC50

{"columns": ["Compound", "Result Value"],
 "data": [
  ["CN(C)S(=O)(=O)Nc1ccc(F)c(Nc2ncccc2-c2ncnc3[nH]cnc23)c1F", 5.75],
  ["O=S(=O)(Cc1ccccc1)Nc1ccc(F)c(Nc2ncccc2-c2ncnc3[nH]cnc23)c1F", 5.29],
  ["O=S(=O)(Nc1ccc(F)c(Nc2ncccc2-c2ncnc3[nH]cnc23)c1F)C1CCCCC1", 5.36],
  ["CCC(C)S(=O)(=O)Nc1ccc(F)c(Nc2ncccc2-c2ncnc3[nH]cnc23)c1F (configuration not stated)", 6.11],
  ["CC(C)S(=O)(=O)Nc1ccc(F)c(Nc2ncccc2-c2ncnc3[nH]cnc23)c1F", 5.81],
  ["O=S(=O)(Nc1ccc(F)c(Nc2ncccc2-c2ncnc3[nH]cnc23)c1F)N1CCCC1", 5.68],
  ["O=S(=O)(Nc1ccc(F)c(Nc2ncccc2-c2ncnc3[nH]cnc23)c1F)c1ccc(F)cc1", 5.25],
  ["O=S(=O)(Nc1ccc(F)c(Nc2ncccc2-c2ncnc3[nH]cnc23)c1F)c1ccccc1F", 6.06],
  ["CS(=O)(=O)Nc1ccc(F)c(Nc2ncccc2-c2ncnc3[nH]cnc23)c1F", 5.17],
  ["O=S(=O)(Nc1ccc(F)c(Nc2ncccc2-c2ncnc3[nH]cnc23)c1F)c1nccs1", 6.11],
  ["O=S(=O)(Nc1ccc(F)c(Nc2ncccc2-c2ncnc3[nH]cnc23)c1F)c1cccnc1", 6.10],
  ["O=S(=O)(Nc1ccc(F)c(Nc2ncccc2-c2ncnc3[nH]cnc23)c1F)C1CC1", 5.68],
  ["CCCC(C)S(=O)(=O)Nc1ccc(F)c(Nc2ncccc2-c2ncnc3[nH]cnc23)c1F (configuration not stated)", 5.09],
  ["O=S(=O)(Nc1ccc(F)c(Nc2ncccc2-c2ncnc3[nH]cnc23)c1F)c1cn[nH]c1", 6.09],
  ["O=S(=O)(Nc1ccc(F)c(Nc2ncccc2-c2ncnc3[nH]cnc23)c1F)c1ccccc1", 5.64],
  ["O=S(=O)(Nc1ccc(F)c(Nc2ncccc2-c2ncnc3[nH]cnc23)c1F)C1CCCC1", 5.74],
  ["O=S(=O)(CC(F)(F)F)Nc1ccc(F)c(Nc2ncccc2-c2ncnc3[nH]cnc23)c1F", 6.15],
  ["O=S(=O)(Nc1ccc(F)c(Nc2ncccc2-c2ncnc3[nH]cnc23)c1F)c1cccc(F)c1", 5.82],
  ["CCN(C)S(=O)(=O)Nc1ccc(F)c(Nc2ncccc2-c2ncnc3[nH]cnc23)c1F", 5.75],
  ["O=S(=O)(Nc1ccc(F)c(Nc2ncccc2-c2ncnc3[nH]cnc23)c1F)C1CCC1", 5.75],
  ["CCCS(=O)(=O)Nc1ccc(F)c(Nc2ncccc2-c2ncnc3[nH]cnc23)c1F", 6.03],
  ["Cn1cc(S(=O)(=O)Nc2ccc(F)c(Nc3ncccc3-c3ncnc4[nH]cnc34)c2F)cn1", 5.65],
  ["O=S(=O)(Nc1ccc(F)c(Nc2ncccc2-c2ncnc3[nH]cnc23)c1F)N1CCOCC1", 5.45],
  ["O=S(=O)(Nc1ccc(F)c(Nc2ncccc2-c2ncnc3[nH]cnc23)c1F)C1CCOC1 (configuration not stated)", 5.83],
  ["O=S(=O)(Nc1ccc(F)c(Nc2ncccc2-c2ncnc3[nH]cnc23)c1F)N1CC[C@@H](O)C1", 5.14],
  ["O=S(=O)(Nc1ccc(F)c(Nc2ncccc2-c2ncnc3[nH]cnc23)c1F)c1ccccn1", 5.10],
  ["O=S(=O)(Nc1ccc(F)c(Nc2ncccc2-c2ncnc3[nH]cnc23)c1F)c1cccs1", 6.40]
]}
